# Target Under Test: Protein arginine N-methyltransferase 3 (Homo sapiens)
# Sequence (O60678 whole entry): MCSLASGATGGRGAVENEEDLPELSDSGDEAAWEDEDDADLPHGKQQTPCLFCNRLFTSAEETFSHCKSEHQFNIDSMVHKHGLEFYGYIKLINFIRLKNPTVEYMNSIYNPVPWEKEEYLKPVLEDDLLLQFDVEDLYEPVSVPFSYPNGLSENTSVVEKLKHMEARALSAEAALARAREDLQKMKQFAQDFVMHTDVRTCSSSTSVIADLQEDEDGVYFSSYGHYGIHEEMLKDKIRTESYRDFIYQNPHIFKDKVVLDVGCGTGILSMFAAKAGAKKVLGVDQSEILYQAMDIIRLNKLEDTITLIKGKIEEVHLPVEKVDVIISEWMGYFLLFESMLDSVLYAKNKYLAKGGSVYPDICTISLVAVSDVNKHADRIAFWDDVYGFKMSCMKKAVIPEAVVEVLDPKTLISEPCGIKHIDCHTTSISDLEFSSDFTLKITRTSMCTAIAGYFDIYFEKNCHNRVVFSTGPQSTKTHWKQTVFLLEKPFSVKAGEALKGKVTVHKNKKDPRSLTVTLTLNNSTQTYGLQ
Assay Endpoint: IC50 (nM)
# unit: nM | format: bare number

### Prompt What value of IC50 has been recorded for this entry: `CCOCC1(COCC)CCC(Oc2ccccc2CN(C)C[C@@H](O)CNC)CC1`
### Response 2640

###

# Target Under Test: Histone-arginine methyltransferase CARM1 (Homo sapiens, UniProt Q86X55)
# Sequence (Q86X55 whole entry): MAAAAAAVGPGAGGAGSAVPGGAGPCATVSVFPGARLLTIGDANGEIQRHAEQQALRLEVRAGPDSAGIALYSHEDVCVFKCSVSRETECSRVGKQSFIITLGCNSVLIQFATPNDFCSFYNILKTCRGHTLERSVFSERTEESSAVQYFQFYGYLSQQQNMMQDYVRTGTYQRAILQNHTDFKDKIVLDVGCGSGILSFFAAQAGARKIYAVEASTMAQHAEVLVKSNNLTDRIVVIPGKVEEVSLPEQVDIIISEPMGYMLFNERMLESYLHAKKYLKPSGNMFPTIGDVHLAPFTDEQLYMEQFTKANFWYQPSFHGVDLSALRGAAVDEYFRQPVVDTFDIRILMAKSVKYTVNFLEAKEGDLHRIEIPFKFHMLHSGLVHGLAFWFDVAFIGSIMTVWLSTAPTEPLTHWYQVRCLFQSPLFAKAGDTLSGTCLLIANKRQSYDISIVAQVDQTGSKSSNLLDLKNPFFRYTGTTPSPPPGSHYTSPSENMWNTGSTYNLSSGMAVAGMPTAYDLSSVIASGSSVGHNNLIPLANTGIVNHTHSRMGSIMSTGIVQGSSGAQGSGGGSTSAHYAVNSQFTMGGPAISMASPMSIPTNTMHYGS
# Protocol Summary: Inhibition of N-terminal FLAG tagged human PRMT4 (2 to end residues) expressed in FreeStyle 293-F cells using SAM and rHistone H3.1 as substrate preincubated for 60 mins followed by substrate addition and measured after 40 mins by Topcount reader based analysis
Assay Endpoint: pIC50
Just the number, please; pIC50 means minus log10 of the concentration in mol/L.

### Prompt What value of pIC50 has been recorded for this entry: `CCOCC1(COCC)CCC(c2n[nH]cc2CN(C)CCNC)CC1`
### Response 8.77
